test-system: JAK3 (Homo sapiens)
Construct: endogenous in cells; mixed lysate 1:2
Sequence (P52333 whole entry): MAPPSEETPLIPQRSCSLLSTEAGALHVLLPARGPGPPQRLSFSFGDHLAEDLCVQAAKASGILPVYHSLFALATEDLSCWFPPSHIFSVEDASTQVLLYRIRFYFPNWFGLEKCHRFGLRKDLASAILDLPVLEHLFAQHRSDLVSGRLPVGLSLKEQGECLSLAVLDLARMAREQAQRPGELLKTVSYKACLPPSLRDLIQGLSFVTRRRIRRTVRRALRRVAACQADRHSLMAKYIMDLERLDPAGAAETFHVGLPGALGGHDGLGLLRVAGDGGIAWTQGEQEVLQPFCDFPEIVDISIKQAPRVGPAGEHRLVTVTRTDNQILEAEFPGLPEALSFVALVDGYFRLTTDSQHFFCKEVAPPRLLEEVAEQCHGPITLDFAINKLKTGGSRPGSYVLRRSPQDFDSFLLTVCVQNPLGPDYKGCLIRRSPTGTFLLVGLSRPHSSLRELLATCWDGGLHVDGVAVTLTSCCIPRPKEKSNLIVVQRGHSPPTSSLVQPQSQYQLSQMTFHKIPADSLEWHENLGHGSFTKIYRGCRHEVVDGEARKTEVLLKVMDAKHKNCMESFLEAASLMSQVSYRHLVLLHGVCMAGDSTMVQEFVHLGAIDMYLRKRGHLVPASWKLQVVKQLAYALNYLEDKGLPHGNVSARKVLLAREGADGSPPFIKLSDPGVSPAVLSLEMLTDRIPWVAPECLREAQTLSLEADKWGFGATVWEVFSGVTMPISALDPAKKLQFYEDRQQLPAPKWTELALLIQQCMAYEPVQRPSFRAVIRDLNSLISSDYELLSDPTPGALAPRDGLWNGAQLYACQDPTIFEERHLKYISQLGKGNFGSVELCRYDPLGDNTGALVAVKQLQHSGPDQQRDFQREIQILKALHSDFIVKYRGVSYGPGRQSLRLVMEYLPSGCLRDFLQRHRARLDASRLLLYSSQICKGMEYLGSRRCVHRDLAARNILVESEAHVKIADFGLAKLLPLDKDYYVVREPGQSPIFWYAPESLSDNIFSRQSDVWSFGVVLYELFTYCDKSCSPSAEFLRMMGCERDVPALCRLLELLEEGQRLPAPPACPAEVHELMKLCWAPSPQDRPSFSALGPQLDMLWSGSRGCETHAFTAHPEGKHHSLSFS
assay-procedure: Kinobeads assay with immunodetection, JAK3
assay-conditions: Kinobeads assay, mixed Molt4/Ramos lysate; read-out: Inhibition values (IC50) JAK3
pIC50: −log10 of the molar value.
Below is a list of entries, each paired with its recorded pIC50 value.

[[record]]
compound = "CN(C)C(=O)Cn1cc(Nc2ncc(Cl)c(NC[C@H]3CCCN3S(C)(=O)=O)n2)cn1"
test_system = "JAK3 (Homo sapiens)"
observed_result = "> 7.00"

[[record]]
compound = "CCN1CCC[C@H]1CNc1nc(Nc2cnn(C)c2)ncc1Cl"
test_system = "JAK3 (Homo sapiens)"
observed_result = "6.00 to 7.00"

[[record]]
compound = "Cc1cnc(Nc2cnn(CC(F)F)c2)nc1NC[C@H]1CCCN1CCC#N"
test_system = "JAK3 (Homo sapiens)"
observed_result = "> 7.00"

[[record]]
compound = "Cc1cnc(Nc2cnn(CC(F)F)c2)nc1NC[C@@H]1CCCN1C(=O)CCC#N"
test_system = "JAK3 (Homo sapiens)"
observed_result = "6.00 to 7.00"

[[record]]
compound = "Cn1cc(Nc2ncc(Cl)c(NCC3CCCN(C(=O)CC#N)C3)n2)cn1 (centres unmarked)"
test_system = "JAK3 (Homo sapiens)"
observed_result = "> 7.00"

[[record]]
compound = "Cn1cc(Nc2ncc(Cl)c(NC[C@@H]3CCCN3S(C)(=O)=O)n2)cn1"
test_system = "JAK3 (Homo sapiens)"
observed_result = "> 7.00"


Alright, here's another compound for you.
Known value: JAK3 (Homo sapiens) pIC50 of the compound CC(=O)N1CC[C@H](CNc2nc(Nc3cnn(C)c3)ncc2Cl)C1 equals 5.00 to 6.00

Values compiled from patent US20150005281A1.
